B1: Transcription elongation factor A N-terminal and central domain-containing protein, residues 30 to 77; numbered along this chain, Q8N8B7 (parent)
chain: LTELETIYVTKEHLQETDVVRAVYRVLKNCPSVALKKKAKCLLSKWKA

Variants of: B1
Experiment: abundance fitness (aPCA) (normalised: wild type 0, dead -1); higher = more abundant; growth selection in yeast, the domain comes from the species named
Conditions: Homo sapiens
Param threshold (-0.4) applies to abundance fitness; output Met when value >= threshold, Not met when value < threshold.

P31I ... Met
H13L ... Not met
V9M ... Met
V19W ... Met

Ask | Given the entry K45E , answer whether its abundance fitness meets or surpasses -0.4.
Reply | Not met

Ask | E16C , same question.
Reply | Met

Ask | Another: V23T
Reply | Met

Ask | Input L43A
Reply | Not met

Ask | And what about the variant H13F ?
Reply | Not met

Ask | Okay, and K47D ?
Reply | Not met

Ask | How about V26Q ?
Reply | Met

Ask | # repeat for E16F
Reply | Met

Ask | And then C30D , what is it?
Reply | Not met

Ask | Next variant up: L1V
Reply | Met

Ask | Please answer likewise for C30N
Reply | Met
